# procedure details: Physicochemical properties of the TKIs (solubility, log P, log D, pKa; Tables 2, 11, 13)
Items are presented alongside their recorded pKa.
Reply with just the number.

Cc1cccc2c1C(=CNc1ccc(CCN3CCCCC3)cc1)C(=O)N2 9.65

Continue with the molecule presented below.
GET /value?item= `CCN(CC)CCOc1ccc(NC=C2C(=O)Nc3cc(F)ccc32)cc1` &field=pKa returns 9.68

---

# procedure details: In vivo pharmacokinetics of AGN 202314 subconjunctival PLGA implants and PLA microspheres
# test parameters: retina, other: subconjunctival implant; Day 8; subconjunctival PLGA implants, 3 rods, total 1.2 mg AGN 202314; rabbit; read-out: Retina AGN 202314 concentration
readout type: concentration at 8 day

Quick note, concentration at 8 day for `CCN(CC)CCOc1ccc(NC=C2C(=O)Nc3cc(F)ccc32)cc1` landed at 63.8 ng/g

---

# procedure details: Physicochemical properties of the TKIs (solubility, log P, log D, pKa; Tables 2, 11, 13)
# test parameters: pH 7, aqueous buffer
# Experimental: Tyrosine kinase inhibitors were incorporated into PLGA or PLA implants by extrusion. The TKIs were milled with the polymers at certain ratios then extruded into filaments. These filaments were subsequently cut into implants weighing approximately 1 mg. Several TKIs were formulated in the PLGA and PLA implants based on their potencies and physicochemical properties as shown in Table 2. We developed a new (oil in water) process for making active agent microspheres (FIG. 23). […]
readout type: solubility (µg/mL)
Output spec: scalar in µg/mL, unitless text.

molecule	number
O=C(O)CC1O/C(=C2/C(=O)Nc3cc(F)ccc32)c2ccccc21 (stereo not shown) [AGN 201634]	88
Nc1ccc2c(c1)C(=C1C(=O)Nc3ccc(Cl)cc31)OC2 [AGN 200954]	0.3
CCN(CC)CCOc1ccc(NC=C2C(=O)Nc3cc(F)ccc32)cc1 [AGN 202314]	202

Briefly, solubility measured for Cc1cccc2c1C(=CNc1ccc(CCN3CCCCC3)cc1)C(=O)N2 [AGN 202560] : 41

---

# procedure details: In vivo pharmacokinetics of AGN 202314 subconjunctival PLGA implants and PLA microspheres
# test parameters: lens, other: subconjunctival implant; Day 15; subconjunctival PLGA implants, 3 rods, total 1.2 mg AGN 202314; rabbit
readout type: concentration at 15 day (ng/g)
Answer with a number only, understood to be in ng/g.

The reported concentration at 15 day of the molecule CCN(CC)CCOc1ccc(NC=C2C(=O)Nc3cc(F)ccc32)cc1 [AGN 202314] was 7.93

---

Entries and their logP values follow.
# procedure details: Physicochemical properties of the TKIs (solubility, log P, log D, pKa; Tables 2, 11, 13)
# test parameters: n-octanol/water; Table 2
Write the number on its own, no unit after it.

Worked examples follow.
molecule	logP
Cc1cccc2c1C(=CNc1ccc(CCN3CCCCC3)cc1)C(=O)N2 [AGN 202560]	3.66
Nc1ccc2c(c1)C(=C1C(=O)Nc3ccc(Cl)cc31)OC2 [AGN 200954]	2.21
CCN(CC)CCOc1ccc(NC=C2C(=O)Nc3cc(F)ccc32)cc1 [AGN 202314]	3.8

Continue with the molecule presented below.
The molecule listed as O=C(O)CC1O/C(=C2/C(=O)Nc3cc(F)ccc32)c2ccccc21 (stereo not shown) [AGN 201634] has a reported logP of 1.25

---

# procedure details: Intravitreal pharmacokinetics of TKIs in fluid compositions after a single intravitreal injection
# test parameters: female, albino, rabbit, vitreous humor, other: intravitreal injection
readout type: half-life (h)
Please give a number only; it is taken to be in h.

Short answer for `Nc1ccc2c(c1)C(=C1C(=O)Nc3ccc(Cl)cc31)OC2` : half-life was 2.59

---

# procedure details: In vivo pharmacokinetics of AGN 202314 subconjunctival PLGA implants and PLA microspheres
# test parameters: aqueous humor, other: subconjunctival implant; Day 8; subconjunctival PLGA implants, 3 rods, total 1.2 mg AGN 202314; rabbit; read-out: Aqueous Humor AGN 202314 concentration
readout type: concentration at 8 day
Please state the value followed by its unit.

Just so you know, measured concentration at 8 day for `CCN(CC)CCOc1ccc(NC=C2C(=O)Nc3cc(F)ccc32)cc1` came out at 6.38 ng/mL

---

# procedure details: in vivo
# test parameters: female, albino, rabbit
readout type: half-life (h)
Output spec: scalar in h, unitless text.

So for `O=C1Nc2ccccc2C1=CNc1ccc(N2CCOCC2)cc1` , the logged half-life turned out to be 1.21

---

# procedure details: in vivo
# test parameters: female, albino, rabbit
readout type: clearance (mL/min)
Give the number; mL/min is assumed, so skip it.

O=C1Nc2ccccc2C1=CNc1ccc(N2CCOCC2)cc1 0.00387

Could you now consider this next molecule?
What the record says about `Nc1ccc2c(c1)C(=C1C(=O)Nc3ccc(Cl)cc31)OC2` : clearance is 0.00433

---

# procedure details: Intravitreal pharmacokinetics of TKIs in fluid compositions after a single intravitreal injection
# test parameters: female, albino, rabbit, vitreous humor, other: intravitreal injection
readout type: Vd (L)
Please give a number only; it is taken to be in L.

Vd measured on Nc1ccc2c(c1)C(=C1C(=O)Nc3ccc(Cl)cc31)OC2 [AGN 200954] = 0.000705

The measurements presented in this section are drawn from patent US8465778B2.
